Assay: PK after subcutaneous administration of solutions in dogs
Format: in vivo, Beagle dog
Details: male, beagle, dog, plasma, sc, 12 mg/kg, dog mean, n=3; 1344 h; SC 12 mg/kg, 400 mg/mL in 15% water/85% PEG 300
REPORTED_METRIC: concentration at 1344 h (µM)

CC(C)(C#Cc1ccc(-c2ccc(Cl)c3c(NS(C)(=O)=O)nn(CC(F)(F)F)c23)c([C@H](Cc2cc(F)cc(F)c2)NC(=O)Cn2nc(C(F)(F)F)c3c2C(F)(F)[C@@H]2C[C@H]32)n1)S(C)(=O)=O: 0.038

====

Assay: PK after oral administration in liquid-filled capsules in dogs
Type: in vivo, beagle dogs
Details: male, beagle, dog, plasma, po, 7.5 mg, fasted, pentagastrin-pretreated male beagle dogs; oral LFC 7.5 mg fixed dose; 100% glycerol monocaprylocaprate; 100 mg/mL; mean ± SD, n=6
REPORTED_METRIC: Tmax (h)

CC(C)(C#Cc1ccc(-c2ccc(Cl)c3c(NS(C)(=O)=O)nn(CC(F)(F)F)c23)c([C@H](Cc2cc(F)cc(F)c2)NC(=O)Cn2nc(C(F)(F)F)c3c2C(F)(F)[C@@H]2C[C@H]32)n1)S(C)(=O)=O [Formula (Ia)]: 5

====

Assay: Plasma PK after single oral administration in solution, cynomolgus monkey
Assay type: in vivo
Details: male, plasma, single oral 4.0 mg/kg, solution in 5% ethanol/20% propylene glycol/45% PEG 300/30% 0.01 N HCl, mean ± SD, n=3
REPORTED_METRIC: Tmax (h)

CC(C)(C#Cc1ccc(-c2ccc(Cl)c3c(NS(C)(=O)=O)nn(CC(F)(F)F)c23)c([C@H](Cc2cc(F)cc(F)c2)NC(=O)Cn2nc(C(F)(F)F)c3c2C(F)(F)[C@@H]2C[C@H]32)n1)S(C)(=O)=O: 8.7

====

Assay: PK after oral administration in liquid-filled capsules in dogs
Assay type: in vivo, beagle dogs
Settings: dog, plasma; fasted, pentagastrin-pretreated male beagle dogs; oral LFC 7.5 mg fixed dose; 20% caprylocaproyl polyoxyl-8 glycerides and 80% glycerol monocaprylocaprate; 100 mg/mL; mean ± SD, n=6; read-out: AUC0-72h
REPORTED_METRIC: AUC(0-t) (µM·h)

CC(C)(C#Cc1ccc(-c2ccc(Cl)c3c(NS(C)(=O)=O)nn(CC(F)(F)F)c23)c([C@H](Cc2cc(F)cc(F)c2)NC(=O)Cn2nc(C(F)(F)F)c3c2C(F)(F)[C@@H]2C[C@H]32)n1)S(C)(=O)=O: 1.18

====

Test: Plasma PK after single oral administration in solution, rhesus monkey
Type: in vivo
Settings: male, plasma, single oral 4.0 mg/kg, solution in 5% ethanol/20% propylene glycol/45% PEG 300/30% 0.01 N HCl, mean ± SD, n=3
REPORTED_METRIC: Tmax (h)

CC(C)(C#Cc1ccc(-c2ccc(Cl)c3c(NS(C)(=O)=O)nn(CC(F)(F)F)c23)c([C@H](Cc2cc(F)cc(F)c2)NC(=O)Cn2nc(C(F)(F)F)c3c2C(F)(F)[C@@H]2C[C@H]32)n1)S(C)(=O)=O [Formula (Ia)]: 18.7

====

Assay: PK after subcutaneous administration of solutions in dogs
Type: in vivo, Beagle dog
Conditions: male, beagle, dog, plasma, sc, 12 mg/kg, dog mean, n=3; 72.0 h; SC 12 mg/kg, 400 mg/mL in 15% water/85% PEG 300
REPORTED_METRIC: concentration at 72 h (nM)

CC(C)(C#Cc1ccc(-c2ccc(Cl)c3c(NS(C)(=O)=O)nn(CC(F)(F)F)c23)c([C@H](Cc2cc(F)cc(F)c2)NC(=O)Cn2nc(C(F)(F)F)c3c2C(F)(F)[C@@H]2C[C@H]32)n1)S(C)(=O)=O: 37.9

Recorded values, source patent US12594267B2.
